FYI, the data here is from patent US7045528B2.

# ASSAYED SYSTEM: unphosphorylated VEGF-R2Δ50 (FLVK) (Homo sapiens, UniProt P35968, DEL940-989/E990V)
# Construct: VEGF-R2Δ50 contains residues 806–939 and 990–1171; made in house; host or cells: baculovirus/insect cell system
# Sequence (P35968 with tags, fused parts or gaps DEL940-989/E990V limits assumed): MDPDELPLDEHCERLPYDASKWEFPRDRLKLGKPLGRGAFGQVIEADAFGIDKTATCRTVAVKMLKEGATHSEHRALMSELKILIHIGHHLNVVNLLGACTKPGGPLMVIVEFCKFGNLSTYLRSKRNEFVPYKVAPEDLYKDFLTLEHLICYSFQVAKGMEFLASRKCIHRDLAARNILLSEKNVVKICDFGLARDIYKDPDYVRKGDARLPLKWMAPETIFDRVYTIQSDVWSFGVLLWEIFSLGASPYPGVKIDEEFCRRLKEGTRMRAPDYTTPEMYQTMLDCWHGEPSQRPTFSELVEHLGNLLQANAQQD
# MEASUREMENT PROTOCOL: VEGF-R2 coupled spectrophotometric assay, unphosphorylated VEGF-R2Δ50 (FLVK)
# Format: biochemical
# RECORDED CONDITIONS: percent inhibition at 100 nM; library amides from Example 101 (R101), crude mixtures in DMSO; read-out: FLVK (% @ 100 nM)
MEASURED PROPERTY: inhibition at 0.1 µM (%)

# annotated cases, reported inhibition at 0.1 µM shown
Cc1oc2cc(Oc3ccnc4ccsc34)ccc2c1C(=O)Nc1cc(C(C)(C)C)[nH]n1; 100
Cc1oc2cc(Oc3ccnc4ccsc34)ccc2c1C(=O)Nc1ccc2ncsc2c1; 96
Cc1oc2cc(Oc3ccnc4ccsc34)ccc2c1C(=O)Nc1n[nH]c2cccc(F)c12; 61
COC(=O)[C@H](Cc1c[nH]cn1)NC(=O)c1c(C)oc2cc(Oc3ccnc4ccsc34)ccc12; 52
Cc1ccc(NC(=O)c2c(C)oc3cc(Oc4ccnc5ccsc45)ccc23)c(O)c1; 85
Cc1oc2cc(Oc3ccnc4ccsc34)ccc2c1C(=O)Nc1cccc(-c2cc[nH]n2)c1; 94
Cc1oc2cc(Oc3ccnc4ccsc34)ccc2c1C(=O)Nc1cnc2ccccc2c1; 85

P = Cc1oc2cc(Oc3ccnc4ccsc34)ccc2c1C(=O)Nc1cc(C2CC2)nn1C
Q = Cc1oc2cc(Oc3ccnc4ccsc34)ccc2c1C(=O)NCCCN1CCOCC1 [drawing 308]
Q: Given the listed items, does P or Q have the lesser reported inhibition at 0.1 µM? Answer format: the label of the selected item.
Result: P

###

# System: Huvec
# MEASUREMENT PROTOCOL: bFGF Huvec proliferation
# Assay type: cell-based, human
# RECORDED CONDITIONS: Homo sapiens, HUVEC
Catalogue of IC50 readings, one per entry.
The answer is to be given in nM; state only the numeric part.

Guide cases for IC50, answers given:
CNC(=O)c1c(C)n(C)c2cc(Oc3ccnc4cc(-c5nc(CO)cs5)sc34)ccc12 [Example 26]; 2230
CNC(=O)c1c(C)n(C)c2cc(Oc3ccnc4cc(-c5ccc(OC)cn5)sc34)ccc12 [Example 48]; 239
CO[C@@H]1CCN(C(=O)c2cc3nccc(Oc4ccc5c(C(=O)NC6CC6)c(C)sc5c4)c3s2)C1 [Example 11]; 40

Q: Entry CNC(=O)c1c(C)n(C)c2cc(Oc3ccnc4cc(C(=O)N5CCC[C@H]5CO)sc34)ccc12 [Example 16] needs its IC50 filled in; supply it.
Result: 1000

Q: Recall and state the measured IC50 for CNC(=O)c1c(Cl)n(C)c2cc(Oc3ccnc4cc(-c5nc(C(C)(C)O)cs5)sc34)ccc12 [Example 75] .
Result: 10000

Q: Please look at this compound and report its IC50: CNC(=O)c1c(C)n(C)c2cc(Oc3ccnc4cc(C(=O)N5CC[C@@H](O)C5)sc34)ccc12 [Example 19]
Result: 10000

Q: Return IC50 for the following compound: CCCNC(=O)c1c(C)n(C)c2cc(Oc3ccnc4cc(C(=O)N5CCC[C@H]5CO)sc34)ccc12 [Example 58]
Result: 7830

Q: Return IC50 for the following compound: CNC(=O)c1c(C)oc2cc(Oc3ccnc4cc(-c5nccn5C)sc34)ccc12 [Example 13]
Result: 27
